Recorded Ki by entry
experiment: Inhibition of Pseudomonas aeruginosa APH(3')-2b assessed as rate of NADH absorbance decrease by pyruvate kinase/lactate dehydrogenase coupled assay
EXPERIMENTAL ENDPOINT: Ki (µM)

• NC[C@H]1O[C@H](O[C@H]2[C@H](O)[C@@H](O)[C@H](N)C[C@@H]2N)[C@H](N)[C@H]2OCO[C@@H]21 = 642
• NC[C@@H]1CC[C@@H](N)[C@@H](O[C@H]2[C@H](O)[C@@H](O)[C@H](N)C[C@@H]2N)O1 = 650

----------
Listing: LD50 at 96 h of selected compounds
assay: Toxicity in iv dosed ICR mouse assessed as effect on mortality after 4 days; assay type: organism-based; settings: in vivo
EXPERIMENTAL ENDPOINT: LD50 at 96 h (mg/kg)

- NC[C@H]1O[C@H](O[C@H]2[C@H](O)[C@@H](O)[C@H](N)C[C@@H]2N)[C@H](N)[C@H]2OCO[C@@H]21: 303
- NC[C@H]1O[C@H](O[C@H]2[C@H](O)[C@@H](O)[C@H](N)C[C@@H]2N)[C@H](N)[C@@H](O)[C@@H]1O: 161
- NC[C@@H]1CC[C@@H](N)[C@@H](O[C@H]2[C@H](O)[C@@H](O)[C@H](N)C[C@@H]2N)O1: 103
- CN[C@@H]1[C@@H](O)[C@@H](O[C@@H]2[C@@H](O)[C@H](O[C@H]3O[C@H](CN)[C@H]4OCO[C@@H]4[C@H]3N)[C@@H](N)C[C@H]2N)OC[C@]1(C)O: 226

----------
system: Escherichia coli; assay: Antimicrobial activity against Escherichia coli R477-100 by double-microdilution method; type: functional
EXPERIMENTAL ENDPOINT: MIC (µg/mL)

* NC[C@@H]1CC[C@@H](N)[C@@H](O[C@H]2[C@H](O)[C@@H](O)[C@H](N)C[C@@H]2N)O1 | 192
* NC[C@H]1O[C@H](O[C@H]2[C@H](O)[C@@H](O)[C@H](N)C[C@@H]2N)[C@H](N)[C@@H](O)[C@@H]1O | 96
* CN[C@@H]1[C@@H](O)[C@@H](O[C@@H]2[C@@H](O)[C@H](O[C@H]3O[C@H](CN)[C@H]4OCO[C@@H]4[C@H]3N)[C@@H](N)C[C@H]2N)OC[C@]1(C)O | 48
